These measurements were taken from patent US20110097274A1.

test: Biodistribution of labeled radioligands in male Sprague-Dawley rats; assay type: in vivo; conditions: 30 min post-injection; mean ± SD, n = 3
observation_type: % ID/g Striatum (% ID/g)
Answers are plain numbers, in % ID/g.

# annotated cases, reported % ID/g Striatum shown
Cc1ccc(Sc2ccccc2CN(C)[11CH3])c(N)c1 [[^11C]MADAM] : 1.41
CN(C)Cc1ccccc1Sc1ccc([18F])cc1N [[^18F]AFA] : 0.58
CN(C)Cc1ccccc1Sc1ccc(C[18F])cc1N [[^18F]AFM] : 0.83

The following molecules each have a reported value; give each one's % ID/g Striatum.
1. CN(C)Cc1ccccc1Sc1ccc(CCF)cc1N [[^11C]AFE]
2. CN(C)Cc1ccccc1Sc1ccc(CC[18F])cc1N [[^18F]AFE]

0.35
0.33

Count: 2. Required value per item: % ID/g Striatum.
1. CN([11CH3])Cc1ccccc1Sc1ccc(CF)cc1N [[^11C]AFM]
2. CN([11CH3])Cc1ccccc1Sc1ccc(F)cc1N [[^11C]AFA]

1.12
0.38

* * *

test: Biodistribution of labeled radioligands in male Sprague-Dawley rats; format: in vivo; details: 60 min post-injection; mean ± SD, n = 3
Decision: % ID/g Hippocamp. >= 0.5 % ID/g yields Met, all other cases yield Not met.

Example results:
CN(C)Cc1ccccc1Sc1ccc(CC[18F])cc1N [[^18F]AFE] : Not met
Cc1ccc(Sc2ccccc2CN(C)[11CH3])c(N)c1 [[^11C]MADAM] : Met
CN([11CH3])Cc1ccccc1Sc1ccc(F)cc1N [[^11C]AFA] : Not met
CN(C)Cc1ccccc1Sc1ccc(CCF)cc1N [[^11C]AFE] : Not met
CN([11CH3])Cc1ccccc1Sc1ccc(CF)cc1N [[^11C]AFM] : Met
CN(C)Cc1ccccc1Sc1ccc([18F])cc1N [[^18F]AFA] : Not met

Form field: % ID/g Hippocamp. at least 0.5 % ID/g? Entry: CN(C)Cc1ccccc1Sc1ccc(C[18F])cc1N [[^18F]AFM]
Not met

* * *

test system: SERT; test: Baboon PET imaging: brain uptake, kinetic analysis and SERT parameters; assay type: in vivo; details: male, baboon, brain, temporal cortex, intravenous; one-tissue compartment model; baboons, mean ± SD of four experiments; read-out: VT Temporal Cortex
observation_type: Kp
Give bare numbers.

Below: 2 compounds and their reported Kp.
CN(C)Cc1ccccc1Sc1ccc(Br)cc1N [[^11C]DAPA] : 40.5
CN(C)Cc1ccccc1Sc1ccc(I)cc1N [[^11C]ADAM] : 38.6

Now turn to the next compound.
Name the recorded Kp of the item CN(C)Cc1ccccc1Sc1ccc(C#N)cc1N [[^11C]DASB] in your answer.
22.5

* * *

tested on: SERT; assay: Baboon PET imaging: brain uptake, kinetic analysis and SERT parameters; type: in vivo; conditions: baboons, mean ± SD of four experiments
Provide the recorded Regional uptake peak time Occipital Cortex for the entries that follow.
Numbers only, in min.

Below are worked cases with known answers.
CN(C)Cc1ccccc1Sc1ccc(Br)cc1N [[^11C]DAPA] : 36
CN(C)Cc1ccccc1Sc1ccc(I)cc1N [[^11C]ADAM] : 30
CN(C)Cc1ccccc1Sc1ccc(C#N)cc1N [[^11C]DASB] : 16
[11CH3]Sc1ccc([C@H]2CN3CCC[C@H]3c3ccccc32)cc1 [[^11C]McN 5652] : 17

Entry CN([11CH3])Cc1ccccc1Sc1ccc(CF)cc1N [[^11C]AFM] needs its Regional uptake peak time Occipital Cortex filled in; supply it.
30
